- systemName: T1, importin α9 (IMPα9), Arabidopsis thaliana, recombinant (Arabidopsis thaliana, UniProt F4KF65 1-519)
- T1 construct: importin alpha isoform 9 of Arabidopsis thaliana; gene synthesised by GenScript, cloned into pETEV21a; source: E. coli BL21pRARE, purified (Ni2+-IMAC)
- T1 sequence (looked up): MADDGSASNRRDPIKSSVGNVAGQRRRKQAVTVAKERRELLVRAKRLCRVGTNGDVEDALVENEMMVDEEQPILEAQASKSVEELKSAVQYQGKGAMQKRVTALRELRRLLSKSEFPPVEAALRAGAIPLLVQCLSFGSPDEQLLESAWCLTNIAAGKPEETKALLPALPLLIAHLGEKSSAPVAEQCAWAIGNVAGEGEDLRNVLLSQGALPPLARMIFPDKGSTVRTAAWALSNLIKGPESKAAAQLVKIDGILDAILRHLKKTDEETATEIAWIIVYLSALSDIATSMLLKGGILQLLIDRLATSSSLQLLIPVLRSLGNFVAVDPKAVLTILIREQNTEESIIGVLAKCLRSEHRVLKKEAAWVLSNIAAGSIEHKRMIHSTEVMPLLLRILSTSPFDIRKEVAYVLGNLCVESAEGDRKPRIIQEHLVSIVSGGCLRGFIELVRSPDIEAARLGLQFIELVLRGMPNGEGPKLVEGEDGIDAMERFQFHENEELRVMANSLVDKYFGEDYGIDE
- assay: fluorescence polarisation; direct titration: TAMRA-NOP-1 constant at 250 nM, IMPα protein concentration varied; 50 μL samples; LS55 spectrometer; Kd by Logistic Fit in Origin; three independent measurements
- measurementParameters: both partners purified
pKd: −log10 of the molar value. Ends that are not written are not given here. * marks the point of attachment. 5‑TAMRA = 5-carboxytetramethylrhodamine, N-terminal label, CN(C)c1ccc2c(-c3ccc(C(=O)*)cc3C(=O)[O-])c3ccc(N(C)C)cc3[o+]c2c1
measurementKind: pKd

binder: {5‑TAMRA}-LKRYKRRL (also called fluorescently labeled NOP‐1; source: synthetic peptide (solid-phase peptide synthesis, Fmoc, made in house)) [TAMRA‐NOP‐1 (EIN2 NLS peptide, N‐terminally labeled with 5‐TAMRA)]
result: 4.86
